# testTarget: Beta-secretase 1 (Homo sapiens) (UniProt P56817)
# Sequence (P56817 whole entry): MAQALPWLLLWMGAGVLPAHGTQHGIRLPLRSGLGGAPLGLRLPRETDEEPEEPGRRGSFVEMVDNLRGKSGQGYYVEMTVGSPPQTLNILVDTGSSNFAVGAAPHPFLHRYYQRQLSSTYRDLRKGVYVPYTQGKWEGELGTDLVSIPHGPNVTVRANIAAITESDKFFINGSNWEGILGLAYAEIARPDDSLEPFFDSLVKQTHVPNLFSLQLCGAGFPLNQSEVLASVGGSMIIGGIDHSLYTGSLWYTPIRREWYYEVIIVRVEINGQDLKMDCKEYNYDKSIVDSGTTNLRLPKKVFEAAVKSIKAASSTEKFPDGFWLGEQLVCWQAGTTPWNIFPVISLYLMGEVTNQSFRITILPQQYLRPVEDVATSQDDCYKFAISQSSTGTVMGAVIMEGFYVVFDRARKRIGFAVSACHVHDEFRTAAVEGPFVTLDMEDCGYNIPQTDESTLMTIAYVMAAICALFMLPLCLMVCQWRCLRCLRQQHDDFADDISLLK
# experimentNotes: Inhibition of human recombinant BACE1 at 2 uM by FRET assay
measuredQuantity: inhibition (%)

COc1cccc(CC(C)(C)NC(=O)[C@H](CC(C)C)NC(=O)[C@@H](NC(=O)[C@@H](N)CNC(=O)c2cc(O)ccc2O)C(C)C)c1; 46
COc1ccc(CC(C)(C)NC(=O)[C@H](CC2CCCCC2)NC(=O)[C@@H](NC(=O)[C@@H](N)CNC(=O)c2cc(O)ccc2O)C(C)C)cc1; 45
Cc1ccc(CC(C)(C)NC(=O)[C@H](CC(C)C)NC(=O)[C@@H](NC(=O)[C@@H](N)CNC(=O)c2cc(O)ccc2O)C(C)C)cc1; 51
CC(C)C[C@H](NC(=O)[C@@H](NC(=O)[C@@H](N)CNC(=O)c1cc(O)ccc1O)C(C)C)C(=O)NC(C)(C)Cc1ccc([N+](=O)[O-])cc1; 45

A: COc1ccc(CC(C)(C)NC(=O)[C@H](CC(C)C)NC(=O)[C@@H](NC(=O)[C@@H](N)CNC(=O)c2cc(O)ccc2O)C(C)C)cc1
B: COc1cccc(CC(C)(C)NC(=O)[C@H](CC(C)C)NC(=O)[C@@H](NC(=O)[C@@H](N)CNC(=O)c2[nH]c(=O)[nH]c(=O)c2F)C(C)C)c1
Query :: Of A and B , which one carries the higher reported inhibition? Identify your selection by its label.
Result :: B
(B: 84%, A: 41%)

---

# testTarget: UniProtKB P56817
# experimentNotes: Inhibition of human recombinant BACE1 at 2 uM by FRET assay
measuredQuantity: inhibition (%)

CC(C)C[C@H](NC(=O)[C@@H](NC(=O)[C@@H](N)CNC(=O)c1cc(O)ccc1O)C(C)C)C(=O)NC(C)(C)Cc1ccccc1; 77
CC(C)[C@H](NC(=O)[C@@H](N)CNC(=O)c1[nH]c(=O)[nH]c(=O)c1F)C(=O)N[C@@H](CC1CCCCC1)C(=O)NC(C)(C)CC1CCCCC1; 88
CC(C)[C@H](NC(=O)[C@@H](N)CNC(=O)c1cc(O)ccc1O)C(=O)N[C@@H](CC1CCCCC1)C(=O)NC(C)(C)Cc1ccc([N+](=O)[O-])cc1; 80
CC(C)[C@H](NC(=O)[C@@H](N)CNC(=O)c1cc(O)ccc1O)C(=O)N[C@@H](CC1CCCCC1)C(=O)NC(C)(C)Cc1ccccc1; 80
Cc1ccc(CC(C)(C)NC(=O)[C@H](CC2CCCCC2)NC(=O)[C@@H](NC(=O)[C@@H](N)CNC(=O)c2[nH]c(=O)[nH]c(=O)c2F)C(C)C)cc1; 88
CC(C)[C@H](NC(=O)[C@@H](N)CNC(=O)c1[nH]c(=O)[nH]c(=O)c1F)C(=O)N[C@@H](CC1CCCCC1)C(=O)NC(C)(C)Cc1ccccc1; 92

---

# testTarget: Beta-secretase 1 (Homo sapiens) (UniProt P56817)
# experimentNotes: Inhibition of human recombinant BACE1 at 2 uM by FRET assay
measuredQuantity: inhibition (%)

P: CC(C)C[C@H](NC(=O)[C@@H](NC(=O)[C@@H](N)CNC(=O)c1[nH]c(=O)[nH]c(=O)c1F)C(C)C)C(=O)N1CCCCCCCC1
Q: COc1cccc(CC(C)(C)NC(=O)[C@H](CC2CCCCC2)NC(=O)[C@@H](NC(=O)[C@@H](N)CNC(=O)c2cc(O)ccc2O)C(C)C)c1
Query :: Which of the two gives a bigger number for inhibition: P or Q ? Mark your selection by writing its label.
Result :: P

a: CC(C)[C@H](NC(=O)[C@@H](N)CNC(=O)c1[nH]c(=O)[nH]c(=O)c1F)C(=O)N[C@@H](CC1CCCCC1)C(=O)NC(C)(C)Cc1ccc([N+](=O)[O-])cc1
b: Cc1ccccc1CC(C)(C)NC(=O)[C@H](CC1CCCCC1)NC(=O)[C@@H](NC(=O)[C@@H](N)CNC(=O)c1cc(O)ccc1O)C(C)C
Query :: Lab note: check whether a or b shows the higher recorded inhibition. Give the label of your selection.
Result :: a
(a: 89%, b: 54%)

// data source = ChEMBL document CHEMBL1938339
